PROTOCOL SUMMARY: adipocyte viability effects, profiling panel, cell-based, 3T3-L1 adipocytes, calcein-AM fluorescence, 48 h, basal (AID 1163); also: test concentration not given here
RUN CONDITIONS: 3T3-L1 adipocytes viability, higher = more signal
Readings of z-score for the listed compounds
MEASUREMENT TYPE: z-score

- SMILES STR: "CC(C)=CCCC(C)=CCON=C1C[C@@H](O)[C@@H](O)[C@@H]2[C@@H]3C(=O)N(Cc4ccc5c(c4)OCO5)C(=O)[C@@H]3CC[C@@H]12"
  MEASUREMENT TYPE: "z-score"
  ASSAY RESULT: 0.603
- SMILES STR: "CO[C@H]1COC(=O)[C@H](C)COC(=O)[C@@H](OCc2ccccc2)C=C[C@@H]1C"
  MEASUREMENT TYPE: "z-score"
  ASSAY RESULT: 0.0582
- SMILES STR: "CC(=O)OC[C@H]1O[C@@H](ON=C2[C@H]3CCn4c(=O)n(-c5ccccc5)c(=O)n4[C@H]3[C@H](O)[C@@H]3O[C@H]23)[C@H](OC(C)=O)[C@@H](OC(C)=O)[C@@H]1OC(C)=O"
  MEASUREMENT TYPE: "z-score"
  ASSAY RESULT: -1.14
- SMILES STR: "CCN1C(=O)[C@H]2[C@H]3[C@H](O)[C@H](O)CC(=NO[C@@H](C)c4cc(-c5c(C)cc(C)cc5C)no4)[C@@H]3CC[C@H]2C1=O"
  MEASUREMENT TYPE: "z-score"
  ASSAY RESULT: 0.335
- SMILES STR: "CC(=O)OC[C@H]1O[C@@H](ON=C(C)CCN2CCCCc3nc(C)c(C)cc32)[C@H](OC(C)=O)[C@@H](OC(C)=O)[C@@H]1OC(C)=O"
  MEASUREMENT TYPE: "z-score"
  ASSAY RESULT: 1.58
- SMILES STR: "CCc1cc2c(nc1CC)CCN(CCC(C)=NO[C@@H]1O[C@H](COC(C)=O)[C@@H](OC(C)=O)[C@H](OC(C)=O)[C@H]1OC(C)=O)C2"
  MEASUREMENT TYPE: "z-score"
  ASSAY RESULT: 0.776

* * *

PROTOCOL SUMMARY: small-molecule microarray binders of probe aCHRDL2, primary screen, biochemical, biotinylated probe, 635/667 nm fluorescence (AID 1100)
RUN CONDITIONS: higher = more signal
MEASUREMENT TYPE: composite z-score

- MOLECULE: "CON=C(C)CCN1CCCCc2nc(C)c(C)cc21"
  ASSAY RESULT: -0.0831
- MOLECULE: "CC(C)=CCCC(C)=CCON=C1C[C@@H](O)[C@@H](O)[C@@H]2[C@@H]3C(=O)N(Cc4ccc5c(c4)OCO5)C(=O)[C@@H]3CC[C@H]12"
  ASSAY RESULT: -0.257
- MOLECULE: "CCOC(=O)[C@H](CC(C)C)NC(=O)CCC1CC(OC(=O)NCCc2ccc(F)cc2)CC2(CCCC(COC(=O)NCCCN3CCCC3=O)O2)O1 (stereo partly drawn)"
  ASSAY RESULT: -0.509
- MOLECULE: "CCOC(=O)[C@H](Cc1ccccc1)NC(=O)CCC1CC(OC(=O)NCCc2ccc(F)cc2)CC2(CCCC(COC(=O)NCCOc3ccccc3)O2)O1 (stereo partly drawn)"
  ASSAY RESULT: -0.442
- MOLECULE: "CC(C)=NOC(C)CN1CCCCc2nc(C)c(C)cc21 (stereo not drawn)"
  ASSAY RESULT: -0.331
- MOLECULE: "COC(=O)[C@H](C)NC(=O)CCC1CC(OC(=O)NCc2ccc3c(c2)OCO3)CC2(CCCC(COC(=O)NCc3ccccc3)O2)O1 (stereo partly drawn)"
  ASSAY RESULT: -0.612
- MOLECULE: "O=C(NN=C1C[C@@H](O)[C@@H](O)[C@@H]2[C@@H]3C(=O)N(Cc4ccccc4)C(=O)[C@@H]3CC[C@H]12)OCc1ccccc1"
  ASSAY RESULT: -0.47
- MOLECULE: "COC(=O)CC=C[C@@H](C)[C@@H](C=NOC(C)CN1CCCCc2nc(C)c(C)cc21)NS(=O)(=O)c1ccc(C)cc1 (stereo partly drawn)"
  ASSAY RESULT: 0.0097

* * *

ASSAY TARGET: Torsin-1A (Homo sapiens)
PROTOCOL SUMMARY: small-molecule binders of mutant TOR1A in lysate, primary screen, cell lysate, small-molecule microarray, COS7 lysate, 635/667 nm fluorescence (AID 1150);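 also: score pools 667 nm emission and signal to noise measuring lysate protein binding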
RUN CONDITIONS: COS7 hTOR1A mutant lysate, 635 nm fluorescence, higher = more signal
Tag: yes (1) if measured composite z-score is not below 0.6, no (0) if it is.

- SMILES STR: "C[C@H]1CC[C@@H](C(=O)O)N[C@@H]1c1cccc(N2CCCC2=O)c1"
  ASSIGNED CLASS: "no (0)"
- SMILES STR: "C#CCCCON=C1C[C@@H](O)[C@@H](O)[C@@H]2[C@@H]3C(=O)N([C@@H](C)c4ccccc4)C(=O)[C@@H]3CC[C@@H]12"
  ASSIGNED CLASS: "no (0)"
- SMILES STR: "COC(=O)[C@@H]1CC[C@H](C)[C@@H](c2ccc(C)cc2)N1C(=O)c1ccc(C=NOC[C@H]2O[C@H](c3ccccc3)C=C[C@@H]2Oc2ccc(OC)cc2)cc1"
  ASSIGNED CLASS: "no (0)"
- SMILES STR: "C[C@@H]1CC[C@H]2C(=O)N3[C@@H](CC[C@@H](C)[C@@H]3c3ccc(Br)cc3)C(=O)N2[C@H]1c1ccc(Br)cc1"
  ASSIGNED CLASS: "yes (1)"
- SMILES STR: "CC(=O)OC[C@H]1O[C@H](CCON=C(C)C)C=C[C@@H]1OC(C)=O"
  ASSIGNED CLASS: "no (0)"
- SMILES STR: "CN1CCc2nc(-c3ccccc3)c(-c3ccccc3)cc2C1"
  ASSIGNED CLASS: "no (0)"
- SMILES STR: "O=C1[C@H]2[C@H]3[C@H](O)[C@H](O)CC(=NO[C@@H]4O[C@H](CO)[C@@H](O)[C@H](O)[C@H]4O)[C@H]3CC[C@H]2C(=O)N1c1ccc(F)cc1F"
  ASSIGNED CLASS: "no (0)"
- SMILES STR: "C=CC[C@@H]1C=C[C@H](ON=C[C@@H](NS(=O)(=O)c2ccc(C)cc2)[C@H](C)C=CCC(=O)OC)[C@@H](CO)O1"
  ASSIGNED CLASS: "yes (1)"
- SMILES STR: "O=C1C=C[C@@H](O)[C@@H]2[C@@H]3C(=O)N(c4cccc(Oc5ccccc5)c4)C(=O)[C@@H]3CC[C@@H]12"
  ASSIGNED CLASS: "no (0)"
- SMILES STR: "COc1ccc(COC(=O)NN=C2C[C@@H](O)[C@@H](O)[C@@H]3[C@@H]4C(=O)N(C(C)(C)C)C(=O)[C@@H]4CC[C@@H]23)cc1"
  ASSIGNED CLASS: "yes (1)"
- SMILES STR: "CC1(C)O[C@H]2O[C@H]([C@H](O)CON=C3[C@H]4CCn5c(=O)n(-c6ccccc6)c(=O)n5[C@H]4[C@H](O)[C@@H]4O[C@H]34)[C@H](O)[C@H]2O1"
  ASSIGNED CLASS: "no (0)"
- SMILES STR: "CO[C@@H]1[C@H](O)CO[C@H]1C=Cc1ccccc1"
  ASSIGNED CLASS: "no (0)"
- SMILES STR: "COc1ccc(O[C@H]2C=C[C@@H](C#Cc3ccccc3)O[C@@H]2CO)cc1"
  ASSIGNED CLASS: "no (0)"
- SMILES STR: "C[C@@H]1CC[C@H]2C(=O)O[C@@H](CN=[N+]=[N-])CN2[C@H]1c1ccc(Br)cc1"
  ASSIGNED CLASS: "no (0)"

* * *

Listed next: entries and their corresponding composite z-score.
Tested on: glycogen synthase kinase-3 (GSK3A per assay name; protocol says GSK3B)
PROTOCOL SUMMARY: GSK3 binders on small-molecule microarrays, primary screen, biochemical, small-molecule microarray, 635 nm fluorescence, GSK3A (AID 1103); also: the record names both GSK3A and GSK3B
RUN CONDITIONS: small-molecule microarray binding, fluorescence 635 nm; higher = more signal
MEASUREMENT TYPE: composite z-score

- MOLECULE: "O=C1CCCC=C1C(O)COCc1ccccc1 (stereo not given)"
  ASSAY RESULT: -1.62
- MOLECULE: "CON=C(C)CCN1CCCc2nc(C)c(C)cc21"
  ASSAY RESULT: 0.897
- MOLECULE: "COC(=O)CC=C[C@@H](C)[C@@H](C=NOC[C@@H](O)[C@H]1O[C@@H]2OC(C)(C)O[C@@H]2[C@H]1O)OC"
  ASSAY RESULT: 0.589
- MOLECULE: "CCOC(=O)CCN1C(=O)[C@H]2[C@H]3[C@H](O)[C@H](O)CC(=O)[C@@H]3CC[C@H]2C1=O"
  ASSAY RESULT: 0.917
- MOLECULE: "C[C@H]1C=CCC(=O)OC[C@H](C)C(=O)N2CCC[C@H]2C(=O)OC1"
  ASSAY RESULT: 1.29
